- testSystem: human V1a receptor (Homo sapiens)
- Construct: host or cells: CHO cells
- Sequence (P37288 whole entry): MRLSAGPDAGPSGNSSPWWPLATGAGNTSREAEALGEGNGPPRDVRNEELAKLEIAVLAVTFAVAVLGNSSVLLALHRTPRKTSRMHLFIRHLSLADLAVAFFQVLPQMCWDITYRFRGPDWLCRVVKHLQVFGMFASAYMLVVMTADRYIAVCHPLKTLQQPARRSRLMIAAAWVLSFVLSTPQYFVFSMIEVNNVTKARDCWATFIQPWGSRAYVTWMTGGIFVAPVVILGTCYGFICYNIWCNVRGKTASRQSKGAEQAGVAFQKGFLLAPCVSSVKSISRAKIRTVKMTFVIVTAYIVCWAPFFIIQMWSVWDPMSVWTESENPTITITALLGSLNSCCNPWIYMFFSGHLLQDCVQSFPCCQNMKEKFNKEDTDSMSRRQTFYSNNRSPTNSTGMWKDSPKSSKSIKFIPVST
- experimentNotes: Human vasopressin V1a receptor binding assay
- statedConditions: hV1a CHO cell line, competition with 1 nM 3H-AVP; read-out: V1a Binding Affinity IC50
experimentalReadout: IC50 (nM)

[[record]]
molecule = "CN(Cc1cccc(C(F)(F)F)c1)C(=O)C(CC(=O)N1CCC(N2CCCCC2)CC1)N1C(=O)C(N2C(=O)OCC2c2ccccc2)C1C=Cc1cccc(Cl)c1 (stereo not drawn)"
reportedvalue = 0.6

[[record]]
molecule = "CC(NC(=O)C(CC(=O)N1CCC(N2CCCCC2)CC1)N1C(=O)C(N2C(=O)OCC2c2cccc(Cl)c2)C1C=Cc1ccccc1)c1ccccc1 (stereo not drawn)"
reportedvalue = 2.8

[[record]]
molecule = "Cc1cccc(CNC(=O)C(CCC(=O)N2CCN(C3CCCCC3)CC2)N2C(=O)C(N3C(=O)OCC3c3ccccc3)C2C=Cc2ccccc2)c1 (stereo not drawn)"
reportedvalue = 1.17


---

- testSystem: UniProt:P30518
- Sequence (P30518 whole entry): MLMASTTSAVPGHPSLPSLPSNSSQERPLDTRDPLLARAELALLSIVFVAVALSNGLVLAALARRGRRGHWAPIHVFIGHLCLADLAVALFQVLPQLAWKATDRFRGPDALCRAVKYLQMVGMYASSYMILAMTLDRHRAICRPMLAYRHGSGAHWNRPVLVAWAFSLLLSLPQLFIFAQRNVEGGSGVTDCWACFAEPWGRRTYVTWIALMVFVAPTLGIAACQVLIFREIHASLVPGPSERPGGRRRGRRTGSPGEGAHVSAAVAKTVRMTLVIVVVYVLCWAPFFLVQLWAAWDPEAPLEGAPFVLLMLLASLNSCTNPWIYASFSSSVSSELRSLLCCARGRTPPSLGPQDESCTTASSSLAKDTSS
experimentalReadout: Ki

[[record]]
compound = "C[C@@H](NC(=O)[C@@H](CC(=O)N1CCC(N2CCCCC2)CC1)N1C(=O)[C@@H](N2C(=O)OC[C@@H]2c2ccccc2)[C@H]1/C=C/c1ccccc1)c1ccccc1 [Example 224]"
experimentalreadout = "Ki"
reportedvalue = "> 1 µM"


---

In this section we review reported pKi values for a set of compounds.
- testSystem: human V1a receptor (Homo sapiens)
- Construct: host or cells: CHO cells
- experimentNotes: Human vasopressin V1a receptor binding assay
- statedConditions: hV1a CHO cell line, competition with 1 nM 3H-AVP; read-out: V1a Ki
pKi: −log10 of the molar value.
experimentalReadout: pKi

[[record]]
compound = "O=C(NCc1cccs1)C(CCC(=O)N1CCN(C2CCCCC2)CC1)N1C(=O)C(N2C(=O)OCC2c2ccccc2)C1C=Cc1ccccc1 (stereo not drawn)"
reportedvalue = 9.32

[[record]]
compound = "O=C(NCc1cccc([N+](=O)[O-])c1)C(CCC(=O)N1CCN(C2CCCCC2)CC1)N1C(=O)C(N2C(=O)OCC2c2ccccc2)C1C=Cc1ccccc1 (stereo not drawn)"
reportedvalue = 8.98

[[record]]
compound = "O=C(NC1(c2ccccc2)CCCC1)C(CCC(=O)N1CCN(Cc2ccccc2)CC1)N1C(=O)C(N2C(=O)OCC2c2ccccc2)C1C=Cc1ccccc1 (stereo not drawn)"
reportedvalue = 7.81

[[record]]
compound = "O=C(NCc1cc(Cl)ccc1Cl)C(CCC(=O)N1CCN(C2CCCCC2)CC1)N1C(=O)C(N2C(=O)OCC2c2ccccc2)C1C=Cc1ccccc1 (stereo not drawn)"
reportedvalue = 8.55

[[record]]
compound = "O=C(NCc1cccc(Cl)c1)C(CCC(=O)N1CCN(C2CCCCC2)CC1)N1C(=O)C(N2C(=O)OCC2c2ccccc2)C1C=Cc1ccccc1 (stereo not drawn)"
reportedvalue = 9.18

[[record]]
compound = "O=C(NCc1cc(C(F)(F)F)cc(C(F)(F)F)c1)C(CCC(=O)N1CCN(C2CCCCC2)CC1)N1C(=O)C(N2C(=O)OCC2c2ccccc2)C1C=Cc1ccccc1 (stereo not drawn)"
reportedvalue = 8.35

[[record]]
compound = "N#Cc1cccc(C=CC2C(N3C(=O)OCC3c3ccccc3)C(=O)N2C(CCC(=O)N2CCN(C3CCCCC3)CC2)C(=O)NC2CCCc3ccccc32)c1 (stereo not drawn)"
reportedvalue = 8.48

[[record]]
compound = "O=C(NC1CCCc2ccccc21)C(CCC(=O)N1CCN(C2CCCCC2)CC1)N1C(=O)C(N2C(=O)OCC2c2ccccc2)C1C=Cc1cccc(C(F)(F)F)c1 (stereo not drawn)"
reportedvalue = 8.89

[[record]]
compound = "O=C(NCc1ccco1)C(CCC(=O)N1CCN(C2CCCCC2)CC1)N1C(=O)C(N2C(=O)OCC2c2ccccc2)C1C=Cc1ccccc1 (stereo not drawn)"
reportedvalue = 8.48

[[record]]
compound = "O=C(NC1(c2ccccc2)CC1)C(CCC(=O)N1CCN(C2CCCCC2)CC1)N1C(=O)C(N2C(=O)OCC2c2ccccc2)C1C=Cc1ccccc1 (stereo not drawn)"
reportedvalue = 8.56

[[record]]
compound = "CC(NC(=O)C(CC(=O)N1CCC(N2CCCCC2)CC1)N1C(=O)C(N2C(=O)OCC2c2ccccc2)C1CCc1cccc(Br)c1)c1ccccc1 (stereo not drawn)"
reportedvalue = 9.49

[[record]]
compound = "O=C(NC1CCCc2ccccc21)C(CCC(=O)N1CCN(C2CCCCC2)CC1)N1C(=O)C(N2C(=O)OCC2c2ccccc2)C1C=Cc1ccccc1Cl (stereo not drawn)"
reportedvalue = 8.40

